Where these numbers come from: patent EP4582447A1

TARGET_ENTITY: Human VEGFA165 (human, UniProt P15692-4 27-191)
Sequence (P15692 other isoform, or with tags, fused parts or gaps limits assumed): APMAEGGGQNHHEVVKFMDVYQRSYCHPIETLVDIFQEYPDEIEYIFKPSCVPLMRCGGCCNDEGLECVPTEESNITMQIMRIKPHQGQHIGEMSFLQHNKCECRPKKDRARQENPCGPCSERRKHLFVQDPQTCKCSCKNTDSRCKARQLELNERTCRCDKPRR
PROTOCOL_SUMMARY: cell-based or functional assay
Reported IC50 (pM), inhibition of VEGFA-stimulated HUVEC proliferation (CCK-8) values for a set of binders
# unit: pM | format: bare number

binder="V13 (VHH, Purified with C-terminal GGGGS-6×His; also called candidate antibody V13) VHH: QLQLVESGGGSVQPGGSLRLSCEVSGRTFTSYTMGWFRQAPGKEREFVVAISKGGYKYDAVSLEARFTISKDNTKNTVYLQMNSLKPEDTAVYYCAGTRAYGSSRLRLADTYEYWGQGTQVTVSS" observed_result=3940
binder="V15 (VHH, Purified with C-terminal GGGGS-6×His; also called candidate antibody V15) VHH: QLQLVESGGGSVQPGGSLRLSCEVSGRTFASYTMGWFRQAPGKEREFVVAISKGGYKYDSVSLEARFTISKDNTKNTVYLQMNSLKPEDTAVYYCAGTRAYGSSRLRLAETYEYWGQGTQVTVSS" observed_result=7120
binder="V1 (VHH, also called candidate antibody V1; antibody V1) VHH: QLQLVESGGGSVQPGGSLRLSCEVSGRTFSSYTMGWFRQAPGKEREFVVAISKGGYKYDSVSLEARFTISKDNTKNTVYLQMNSLKPEDTAVYYCAATRAYGSSRLRLADTYEYWGQGTQVTVSS" observed_result=2690

Now look at this one.
Prompt: Retrieve IC50 (pM), inhibition of VEGFA-stimulated HUVEC proliferation (CCK-8) measured for V30 (VHH, Purified with C-terminal GGGGS-6×His; also called candidate antibody V30) VHH: QLQLVESGGGSVQPGGSLRLSCEVSGRTFSSYTMGWFRQAPGKGREFVVAISKGGYKYDAVSLEARFTISKDNTKNTVYLQMNSLKPEDTAVYYCAATRAYGSSRLRLAKTYEYWGQGTQVTVSS and print it.
Response: 1270
